# testedOn: Acetylcholinesterase (Homo sapiens, UniProt P22303)
# Sequence (P22303 whole entry): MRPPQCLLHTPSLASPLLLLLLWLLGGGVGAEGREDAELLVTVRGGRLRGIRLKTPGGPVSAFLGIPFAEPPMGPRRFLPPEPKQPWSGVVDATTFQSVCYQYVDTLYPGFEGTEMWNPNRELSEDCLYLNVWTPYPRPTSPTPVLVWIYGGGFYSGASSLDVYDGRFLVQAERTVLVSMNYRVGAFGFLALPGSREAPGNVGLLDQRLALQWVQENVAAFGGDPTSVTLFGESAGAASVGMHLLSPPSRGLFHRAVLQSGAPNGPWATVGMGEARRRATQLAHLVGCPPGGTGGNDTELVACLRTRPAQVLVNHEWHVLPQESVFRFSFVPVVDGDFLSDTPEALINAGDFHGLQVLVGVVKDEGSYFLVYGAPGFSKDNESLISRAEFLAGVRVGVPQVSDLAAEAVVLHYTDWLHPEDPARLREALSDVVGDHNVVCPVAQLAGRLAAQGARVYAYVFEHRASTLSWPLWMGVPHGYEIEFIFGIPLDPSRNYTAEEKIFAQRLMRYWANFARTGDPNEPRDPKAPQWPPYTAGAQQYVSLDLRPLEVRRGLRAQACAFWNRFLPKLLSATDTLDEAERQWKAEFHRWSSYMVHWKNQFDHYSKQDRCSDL
# assayProcedure: Inhibition of human erythrocytes recombinant AChE assessed as dissociation constant for enzyme-inhibitor-substrate complex
valueKind: pKi
The value called pKi is obtained by taking minus log10 of the concentration in mol/L.

Task item: Give pKi for this entry on Acetylcholinesterase (Homo sapiens, UniProt P22303): c1ccc2c(c1)ccc[n+]2Cc1ccc2ccc(C[n+]3cccc4ccccc43)cc2c1
Reply: 5.09

---

# testedOn: Acetylcholinesterase (Homo sapiens, UniProt P22303)
# assayProcedure: Inhibition of human erythrocyte recombinant AChE by modified Ellman's method
valueKind: log10 of IC50 (log10 of the value in µM)
Note the log scale: values are log10 of IC50 expressed in µM.

- c1ccc(C[n+]2cccc3ccccc32)c(C[n+]2cccc3ccccc32)c1: 1.54
- c1ccc2c(c1)ccc[n+]2CCCCCC[n+]1cccc2ccccc21: 1.40
- c1ccc2c(c1)ccc[n+]2CCC[n+]1cccc2ccccc21: 0.95

Task item: Name the value of log10 of IC50 reported for C(=C/C[n+]1cccc2ccccc21)/C[n+]1cccc2ccccc21 when tested on Acetylcholinesterase (Homo sapiens, UniProt P22303).
Reply: 0.30

Task item: Report log10 of IC50 on Acetylcholinesterase (Homo sapiens, UniProt P22303) for this entry: c1ccc2c(c1)ccc[n+]2CCCCC[n+]1cccc2ccccc21
Reply: 0.60

Task item: Please look at c1ccc2c(c1)ccc[n+]2Cc1ccc2ccc(C[n+]3cccc4ccccc43)cc2c1 and tell me its recorded log10 of IC50 on Acetylcholinesterase (Homo sapiens, UniProt P22303).
Reply: -0.10

Task item: Specify log10 of IC50 for c1ccc2c(c1)ccc[n+]2CCCCCCCCC[n+]1cccc2ccccc21 , system Acetylcholinesterase (Homo sapiens, UniProt P22303).
Reply: -1.10

Task item: Report value only: log10 of IC50, Acetylcholinesterase (Homo sapiens, UniProt P22303), c1ccc2c(c1)ccc[n+]2CCCCCCC[n+]1cccc2ccccc21
Reply: -1.05

---

pIC50 values for the molecules below.
# testedOn: Cholinesterase (Homo sapiens)
# Sequence (P06276 whole entry): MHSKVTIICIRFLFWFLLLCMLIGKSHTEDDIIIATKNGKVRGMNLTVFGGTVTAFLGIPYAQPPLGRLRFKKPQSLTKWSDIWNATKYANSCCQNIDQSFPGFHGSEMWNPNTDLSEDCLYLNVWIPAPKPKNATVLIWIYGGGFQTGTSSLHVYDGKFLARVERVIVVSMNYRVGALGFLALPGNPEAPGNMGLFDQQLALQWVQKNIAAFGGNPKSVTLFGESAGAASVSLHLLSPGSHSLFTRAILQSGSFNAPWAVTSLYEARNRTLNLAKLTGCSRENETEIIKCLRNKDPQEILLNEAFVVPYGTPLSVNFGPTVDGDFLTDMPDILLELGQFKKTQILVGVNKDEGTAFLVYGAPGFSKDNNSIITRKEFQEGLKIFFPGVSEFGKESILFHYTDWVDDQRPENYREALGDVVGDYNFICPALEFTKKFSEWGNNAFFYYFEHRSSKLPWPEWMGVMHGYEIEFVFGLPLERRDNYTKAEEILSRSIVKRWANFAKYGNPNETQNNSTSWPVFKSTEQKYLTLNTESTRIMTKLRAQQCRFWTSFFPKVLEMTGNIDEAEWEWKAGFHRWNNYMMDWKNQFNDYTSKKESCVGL
# assayProcedure: Inhibition of human plasmatic BChE by modified Ellman's method
# pIC50: negative log10 of molar concentration; output just the value

* c1ccc2c(c1)ccc[n+]2CCCCCCCCC[n+]1cccc2ccccc21 | 6.22

Task item: Using known records, supply pIC50 for c1ccc2c(c1)ccc[n+]2CCCCCCC[n+]1cccc2ccccc21
Reply: 6.40

Task item: Indicate its recorded pIC50; the molecule in question is c1ccc2c(c1)ccc[n+]2CCOCC[n+]1cccc2ccccc21
Reply: 4.32

Task item: Name the recorded pIC50 of the item c1ccc(C[n+]2cccc3ccccc32)c(C[n+]2cccc3ccccc32)c1 in your answer.
Reply: 5.22

Task item: For the molecule c1ccc2c(c1)ccc[n+]2CCCCCC[n+]1cccc2ccccc21 , give its reported pIC50.
Reply: 5.30

Task item: Fill in reported pIC50 for this entry: c1ccc2c(c1)ccc[n+]2CCCC[n+]1cccc2ccccc21
Reply: 4.49

Task item: For the molecule c1ccc2c(c1)ccc[n+]2COC[n+]1cccc2ccccc21 , give its measured pIC50 value.
Reply: 3.06

---

# testedOn: UniProtKB P22303
# assayProcedure: Inhibition of human erythrocyte recombinant AChE by modified Ellman's method
Friendly reminder: IC50 below 0.02 µM is True, at or above is False.

* c1ccc2c(c1)ccc[n+]2CCOCC[n+]1cccc2ccccc21 | False

Task item: In the record for c1ccc2c(c1)ccc[n+]2CCCCCCCCCCC[n+]1cccc2ccccc21 , is IC50 less than 0.02 µM?
Reply: True

Task item: Decide: IC50 of c1cc(C[n+]2cccc3ccccc32)cc(C[n+]2cccc3ccccc32)c1 strictly below 0.02 µM?
Reply: False

Task item: IC50 under 0.02 µM? Item: c1ccc2c(c1)ccc[n+]2COC[n+]1cccc2ccccc21
Reply: False

From: ChEMBL document CHEMBL1759923
